tested on: HeLa cells; assay: Antiproliferative assay, human cervix carcinoma HeLa cells; type: cell-based; details: Homo sapiens, HeLa, 48 h, read-out: IC50 ± SD, HeLa
Quantity name: pIC50
In simple prose, pIC50 is minus the logarithm base ten of a concentration in moles per litre.

Illustrative cases are given below, each with its answer.
- COC(=O)c1c(N)sc(CCc2cc(OC)ccc2OC)c1C: 4.46
- CCOC(=O)c1cc(CCc2cc(OC)ccc2OC)sc1N: 6.51
- COc1ccc(CCc2cc(C#N)c(N)s2)cc1: 4.72
- CCOC(=O)c1cc(CCc2ccc(OC)cc2)sc1N: 4.41
- CCOC(=O)c1cc(CCc2ccccc2OC)sc1N: 4.35
- COC(=O)c1cc(CCc2ccccc2OC)sc1N: 4.82
- COc1ccc(OC)c(-c2cc(C#N)c(N)s2)c1: 4.15
- COC(=O)c1cc(CCc2cc(OC)ccc2OC)sc1N: 6.11
- COc1ccccc1CCc1cc(C#N)c(N)s1: 5.11
- COC(=O)c1cc(-c2cc(OC)ccc2OC)sc1N: 4.43

Could you now consider this next compound?
According to the records, this compound N#Cc1cc(CCc2ccccc2)sc1N displays pIC50 of 4.46

###

test system: L1210 cells; assay: Antiproliferative assay, murine leukemia L1210 cells; assay type: cell-based; settings: Mus musculus, L1210, 48 h, read-out: IC50 ± SD, L1210
Just a reminder that ties go to condition not met: only IC50 strictly below 20 µM counts as condition met.

Before answering, review these 5 worked examples.
- COC(=O)c1c(N)sc(CCc2cc(OC)ccc2OC)c1C: condition not met
- CCOC(=O)c1c(N)sc(CCc2cc(OC)ccc2OC)c1C(=O)OCC: condition not met
- COC(=O)c1cc(-c2cc(OC)ccc2OC)sc1N: condition not met
- COC(=O)c1cc(CCc2cc(OC)ccc2OC)sc1N: condition met
- COc1ccc(OC)c(-c2cc(C#N)c(N)s2)c1: condition not met

Shift focus to the following entry.
Threshold test, IC50 < 20 µM: COC(=O)c1cc(CCc2ccccc2OC)sc1N
condition met

###

system: tubulin; experiment: Inhibition of [3H]colchicine binding to tubulin; parameters: species or system bovine; details: tubulin 1 µM, colchicine 5 µM, tested compound 5 µM
Quantity name: Colchicine binding % ± SD (inhibition of [3H]colchicine binding) (%)
Please reply with the bare figure in % and do not write the unit itself.

• COc1ccc(OC)c(CCc2cc(C#N)c(N)s2)c1 = 84
• COC(=O)c1cc(CCc2cc(OC)ccc2OC)sc1N = 52
• CCOC(=O)c1cc(CCc2cc(OC)ccc2OC)sc1N = 46

Considering COC(=O)c1cc(CCc2cc(OC)ccc2OC)ccc1O [Compound 1, reference compound] , its Colchicine binding % ± SD (inhibition of [3H]colchicine binding) with tubulin was recorded as 52

###

tested on: FM3A/0 cells; assay: Antiproliferative assay, murine mammary carcinoma FM3A/0 cells; assay type: cell-based; conditions: read-out: IC50 ± SD, FM3A/0; murine mammary carcinoma FM3A/0; 48 h; Coulter counter
Quantity name: IC50 (µM)
Please reply with the bare figure in µM and do not write the unit itself.

According to the records, this compound COC(=O)c1cc(CCc2cc(OC)ccc2OC)ccc1O [Compound 1, reference compound] displays IC50 of 13
